Values were extracted from patent US20130012432A1.

Molecular target: T1, MC1 receptor (UniProt Q01726 1-317, limits assumed)
T1 construct: whole, on cells; also called melanocortin receptor subtype 1; melanocortin receptor 1
T1 sequence (Q01726 whole entry): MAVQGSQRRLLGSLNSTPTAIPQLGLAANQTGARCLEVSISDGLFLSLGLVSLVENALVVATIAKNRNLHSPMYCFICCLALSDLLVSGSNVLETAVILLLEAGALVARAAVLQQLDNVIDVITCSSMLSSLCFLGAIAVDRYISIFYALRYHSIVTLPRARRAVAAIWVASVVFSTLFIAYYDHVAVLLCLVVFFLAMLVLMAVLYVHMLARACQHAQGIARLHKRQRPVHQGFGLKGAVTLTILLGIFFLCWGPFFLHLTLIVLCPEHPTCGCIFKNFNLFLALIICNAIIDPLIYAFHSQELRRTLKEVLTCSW
Experiment: 125I-NDP-α-MSH displacement, BHK-MC1 membranes (Assay IV);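 note: membrane incubations stopped by filtration, retained radioactivity counted, Ki fitted by nonlinear regression to binding curves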
Positions of bridges follow the written chain, without caps; N, C: chain ends. Non-standard residues stand in square brackets, D forms with d. Groups on a side chain read outwards from the residue. Primed or numbered codes have the meaning given here. *: point of attachment. X2 = (2-(2-(16-(tetrazol-5-yl)hexadecanoylamino)ethoxy)ethoxy)acetyl, O=C(CCCCCCCCCCCCCCCc1nn[nH]n1)NCCOCCOCC(=O)*; X5 = NH(2-(2-(2-(17-carboxyheptadecanoylamino)ethoxy)ethoxy)ethyl), O=C(O)CCCCCCCCCCCCCCCCC(=O)NCCOCCOCCN*; X6 = (2-(2-(17-carboxyheptadecanoylamino)ethoxy)ethoxy)acetyl, O=C(O)CCCCCCCCCCCCCCCCC(=O)NCCOCCOCC(=O)*; X4 = (2-(2-(16-carboxyhexadecanoylamino)ethoxy)ethoxy)acetyl, O=C(O)CCCCCCCCCCCCCCCC(=O)NCCOCCOCC(=O)*; biscarboxymethyl = Lys(biscarboxymethyl) = Nepsilon-bis(carboxymethyl)-L-lysine; Palmitoyl(16-(5-tetrazolyl)) = O=C(CCCCCCCCCCCCCCCc1nnn[nH]1)*; biscarboxymethyl(3) = Nepsilon-bis(carboxymethyl) on Lys; Orn = NCCC[C@H](N)C(=O)O; Dap = NC[C@H](N)C(=O)O; AEEA = NCCOCCOCC(=O)O
Hi! Could you tag entries with Ki below 5 µM as Condition met, and those at or above as Condition not met? Much appreciated.

- binder: "Ac-EH[dF]RW[Orn]PPHDK(biscarboxymethyl)K(X2)-NH2 (lactam 1-6)"
  assigned-label: "Condition not met"
- binder: "Ac-[Orn]H[dF]RWDPPHEK(biscarboxymethyl)K(X6)-NH2 (lactam 1-6)"
  assigned-label: "Condition not met"

Threshold test, Ki < 5 µM: Ac-[Orn]H[dF]RWDPPREK(biscarboxymethyl)SS-X5 (lactam 1-6)
Condition met

Threshold test, Ki < 5 µM: Ac-[Dap]H[dF]RWEPPRDK(biscarboxymethyl(3))K([AEEA-Palmitoyl(16-(5-tetrazolyl))])-NH2 (lactam 1-6)
Condition met

Threshold test, Ki < 5 µM: Ac-[Orn]H[dF]RWDPPHEK(biscarboxymethyl)K(X4)-NH2 (lactam 1-6)
Condition met
